Property: growth; scope: individual compounds
- System: MALME-3M melanoma
- measurement.description: NCI-60 one-dose screen, 48 h (100 = growth as untreated, 0 = no growth, -100 = all killed)
- applied.conditions: 10 µM unless noted
About 83,000 compounds went through this panel and 20% of them were active in at least one assay; those are over-represented in the sample as a whole.
The reply should be a number in %, with the unit left off.

Please review the entries below; each comes with its answer.
O=C(Nc1cccc(Cl)c1)c1cc(Cl)ccc1O | -17.8
CCc1c(Nc2ccc(C)cc2)nc(N)[nH]c1=O | 98.6
Cc1ccc(C(c2c(O)c3cc(Br)ccc3[nH]c2=O)c2c(O)c3cc(Br)ccc3[nH]c2=O)cc1 | 91
C=C(C)[C@@H]1CC[C@]2(C(=O)N3CCN(C)CC3)CC[C@]3(C)[C@H](CC[C@@H]4[C@@]5(C)CCC(=O)C(C)(C)[C@@H]5CC[C@]43C)[C@@H]12 | 89
CNC(=O)NCC1OC(n2cnc3c(NC(=O)Nc4ccccc4)ncnc32)C(O[Si](C)(C)C(C)(C)C)C1O[Si](C)(C)C(C)(C)C (centres undefined) | 48.9
CC1(C)[C@H](O)CC[C@]2(C)[C@@H]1CC[C@@]13C[C@@H](CC[C@H]12)[C@@](O)(CO)C3 | 111
CC(C)(O)C1CCCN1C(=O)c1ccccc1I (centres undefined) | 109
Cc1[nH]n(-c2cccc(Cl)c2)c(=O)c1/C=C1\C=Nc2ccc(Br)cc21 | 12.6

In the following, a different compound is considered.
Answer with the recorded growth of Fc1cc(C2=NNC(c3ccc[nH]3)C2)ccc1-n1ccc(C(F)(F)F)n1 (centres undefined) only.
93.7

---

- Test system: T-47D breast
- measurement.description: NCI-60 one-dose screen, 48 h (100 = growth as untreated, 0 = no growth, -100 = all killed)
- applied.conditions: 10 µM unless noted
The panel holds about 83,000 compounds, 20% with a hit somewhere; the sample as a whole holds those more often.
property.label: growth (%)
The reply should be a number in %, with the unit left off.

COc1ccc(CNCCN2C(=O)c3ccc4c5c(ccc(c35)C2=O)C(=O)N(CCNCc2ccc(OC)cc2)C4=O)cc1 | -19
O=S(=O)(c1cccc(NC2=Nc3cccc4cccc2c34)c1)N1CCCC1 | 44.5
CCCCCCOc1ccc(C(=N)N(CCCC)CCCC)c2ccccc12 | -65.5
CCOC(=O)C1=C(C)NC(C)=C(C(=O)OCC)C1c1cc(Br)c(O)c(OC)c1 | 43.8
CCCCCCCC(=O)Nc1nc2[nH]c(CN3CCN(Cc4cccc(I)c4)CC3)c(CN3CCN(Cc4cccc(I)c4)CC3)c2c(=O)[nH]1 | -62
O=S(=O)(NCCCNc1nccc(-c2c(-c3ccccc3)nc3occn23)n1)c1ccc(Cl)cc1 | 58.9
FC(F)(F)c1cccc(Nc2ccccc2)c1 | 101
c1ccc(-c2nnc(Nc3ccc4c(c3)OCCO4)o2)c(NCc2ccncc2)c1 | 52.7

Answer with the recorded growth of O=S(=O)(NCCCNc1nccc(-c2c(-c3cccc(O)c3)nc3occn23)n1)c1ccc(Br)cc1 only.
83.2

Answer with the recorded growth of CCN(CC)CCSCCCNc1c(C)cnc2cc(Cl)ccc12 only.
96.5

Answer with the recorded growth of CC(C)CCSc1nc(NNC(N)=O)c(C#N)c(-c2ccccc2)n1 only.
99.9

Answer with the recorded growth of C1=C2CNCC3=Cc4ccc5ccccc5c4OC23Oc2c1ccc1ccccc21 only.
66.7

Answer with the recorded growth of O=C(O)c1cn(C2CC2)c2cc(N3CCN(C(=O)C[n+]4cccc5ccccc54)CC3)c(F)cc2c1=O only.
74

Answer with the recorded growth of COc1ccccc1C(C[N+](=O)[O-])c1c(-c2ccccc2)[nH]c2cc(C)ccc12 (stereo not given) only.
32.2

meta.source: PubChem BioAssay (NCI)
